Known viability, T/C of a selection of compounds
tested on: 967376-340-R-J2-PDC multicell spheroid viability; test: Anticancer human tumor 967376-340-R-J2-PDC patient-derived colon adenocarcinoma cell line growth inhibition [PI3K]; conditions: second compound 0.1 µM; first compound 0.316 µM; hits give low values
Express your answer in %, writing the number without its unit.

Answered cases to consult:
compound	units symbol	viability, T/C
Cn1nccc1Nc1nccc(-c2ccn(C(CO)c3ccc(Cl)c(F)c3)c(=O)c2)n1 (stereo unspecified) + CC(Nc1ccc2c(c1)OCCn1cc(N3C(=O)OCC3C(F)F)nc1-2)C(N)=O	%	79.3
CC1(C)CCC(Nc2ncc(C(F)(F)F)c(-c3c[nH]c4c(P(C)(C)=O)c(C#N)ccc34)n2)CN1 (stereo unspecified) + CC(Nc1ccc2c(c1)OCCn1cc(N3C(=O)OCC3C(F)F)nc1-2)C(N)=O	%	69.7
C[C@@H](NC(=O)c1ncnc(N)c1Cl)c1ncc(C(=O)Nc2cc(C(F)(F)F)c(Cl)cn2)s1 + CC(Nc1ncnc2nc[nH]c12)c1cc2cccc(Cl)c2c(=O)n1-c1ccccc1	%	90.5
CC1(C)CCC(Nc2ncc(C(F)(F)F)c(-c3c[nH]c4c(P(C)(C)=O)c(C#N)ccc34)n2)CN1 (stereo unspecified) + CC(Nc1ncnc2nc[nH]c12)c1cc2cccc(Cl)c2c(=O)n1-c1ccccc1	%	79.6
CCCS(=O)(=O)Nc1ccc(F)c(C(=O)c2c[nH]c3ncc(-c4ccc(Cl)cc4)cc23)c1F + CC(Nc1ccc2c(c1)OCCn1cc(N3C(=O)OCC3C(F)F)nc1-2)C(N)=O	%	80.3
CCN1CCN(Cc2ccc(Nc3ncc(F)c(-c4cc(F)c5nc(C)n(C(C)C)c5c4)n3)nc2)CC1 + Cc1nc(NC(=O)N2CCCC2C(N)=O)sc1-c1ccnc(C(C)(C)C(F)(F)F)c1	%	54.3
Cn1ncc(Cl)c1-c1cc(C(=O)NC(CN)Cc2cccc(F)c2)sc1Cl (stereo unspecified) + CC(Nc1ncnc2nc[nH]c12)c1cc2cccc(Cl)c2c(=O)n1-c1ccccc1	%	104
CCN1CCN(Cc2ccc(Nc3ncc(F)c(-c4cc(F)c5nc(C)n(C(C)C)c5c4)n3)nc2)CC1 + CC(Nc1ncnc2nc[nH]c12)c1cc2cccc(Cl)c2c(=O)n1-c1ccccc1	%	74.4
CCCS(=O)(=O)Nc1ccc(F)c(C(=O)c2c[nH]c3ncc(-c4ccc(Cl)cc4)cc23)c1F + Cc1nc(NC(=O)N2CCCC2C(N)=O)sc1-c1ccnc(C(C)(C)C(F)(F)F)c1	%	77.2
CC(C)NCC(C(=O)N1CCN(c2ncnc3c2C(C)CC3O)CC1)c1ccc(Cl)cc1 (stereo unspecified) + CC(Nc1ccc2c(c1)OCCn1cc(N3C(=O)OCC3C(F)F)nc1-2)C(N)=O	%	68.6

Let us examine a further case.
Suppose we examine the compound CC1(C)CCC(Nc2ncc(C(F)(F)F)c(-c3c[nH]c4c(P(C)(C)=O)c(C#N)ccc34)n2)CN1 (stereo unspecified) + Cc1nc(NC(=O)N2CCCC2C(N)=O)sc1-c1ccnc(C(C)(C)C(F)(F)F)c1 ; what viability, T/C value has been reported?
69.7

----------
Known viability, T/C of a selection of compounds
system: 967376-340-R-J2-PDC multicell spheroid viability; test: Anticancer human tumor 967376-340-R-J2-PDC cell line growth inhibition [PI3K]; details: second compound 0.1 µM; first compound 0.00949 µM; hits give low values;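 further: luminescence used as surrogate of cell viability; spheroids exposed to agents for 7 days before read-out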
Express your answer in %, writing the number without its unit.

Answered cases to consult:
> print(dat)
                                   compound        property  recorded.value
1  Cn1cnc2c(F)c(Nc3ccc(Br)cc3Cl)c(C(=O)NOCCO)cc21 + COc1c(OCCCN2CCOCC2)ccc2c3n(c(=NC(=O)c4cnc(N)nc4)nc12)CCN3  viability, T/C            49.2
2  Cn1cnc2c(F)c(Nc3ccc(Br)cc3Cl)c(C(=O)NOCCO)cc21 + CC(Nc1ccc2c(c1)OCCn1cc(N3C(=O)OCC3C(F)F)nc1-2)C(N)=O  viability, T/C            66.2
3  Cn1cnc2c(F)c(Nc3ccc(Br)cc3Cl)c(C(=O)NOCCO)cc21 + CC(Nc1ncnc2nc[nH]c12)c1cc2cccc(Cl)c2c(=O)n1-c1ccccc1  viability, T/C             106

Let us examine a further case.
Suppose we examine the compound Cn1cnc2c(F)c(Nc3ccc(Br)cc3Cl)c(C(=O)NOCCO)cc21 + Cc1nc(NC(=O)N2CCCC2C(N)=O)sc1-c1ccnc(C(C)(C)C(F)(F)F)c1 ; what viability, T/C value has been reported?
88.3
